# Assayed System: T1, Human CD47-C33G (human, UniProt Q08722 19-135)
# T1 construct: also called CD47 mutein with C33G mutation
# T1 sequence (Q08722 19-135 C33G limits assumed): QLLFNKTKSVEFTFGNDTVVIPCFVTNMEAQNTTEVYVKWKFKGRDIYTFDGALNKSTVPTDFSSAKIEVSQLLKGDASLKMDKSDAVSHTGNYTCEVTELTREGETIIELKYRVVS
# Protocol Summary: SPR, IgG captured, CD47 in flow; exp 4;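 also: rates fitted from SPR association and dissociation curves, KD estimated from them, the other target is a CD47 C33G mutein, used to obtain true monovalent affinity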
Entries and their pKd
Please note pKd is a logarithmic value: minus log10 of concentration in mol/L. Answer with that number alone.

Binder: 108VH10.Mp / 108VL10.Me (antibody, V domains shown, 4D5-framework series; constant regions not restated for this series; also called VH10.Mp VL10.Me) VH: EVQLVESGGGLVQPGGSLRLSCAASGFTFSHHWIHWVRQAPGKGLEWVAMIDASDSETRLVDSFKGRFTISADTSKNTAYLQMNSLRAEDTAVYYCSRLGRYYFDYWGQGTLVTVSS VL: DIQMTQSPSSLSASVGDRVTITCRASQSISSYLNWYQQKPGKAPKLLIYGASSRYSGVPSRFSGSRSGTDFTLTISSLQPEDFATYYCGESYGHLYTFGQGTKVEIK
pKd: 6.77

Inquiry: Could you tell me which pKd is on file for 108VH4.M4-VL1.M1 (antibody, V domains shown, also called original humanized 108C10A6 antibody) VH: EVQLVQSGAEVKKPGSSVKVSCKASGYSFTHHWIHWVRQAPGQGLEWMGMIDASDSETRLSQKFKDRVTITADKSTSTAYMELSSLRSEDTAVYYCARLGRYYFDYWGQGTTVTVSS VL: EIVLTQSPATLSLSPGERATLSCRASENVGTYISWYQQKPGQAPRLLIYGASNRYTGIPARFSGSGSGTDFTLTISSLEPEDFAVYYCGESYGHLYTFGGGTKVEIK ?
Reply text: 8.82

Inquiry: Could you tell me which pKd is on file for chimeric antibody 108C10A6 (antibody, V domains shown, Chimeric antibody with mouse variable domains; captured through human Fc; also called VH / VL) VH: QMQLQQSGPQLVRPGASVKISCKTSGYSFTHHWIHWMKQRPGQGLEWIGMIDPSDSETRLSQKFKDKATLTVDASSSTAYMQLNSPTSEDSALYFCARLGRYYFDYWGQGTTLTVSS VL: NIVMTQSPRSMSMSVGERVTLSCKASENVGTYISWYQQKPDQSPKLLIYGASNRYTGVPDRFTGSGSGTDFTLTISTVQAEDLADYHCGESYGHLYTFGGGTKLEIK ?
Reply text: 9.17

Inquiry: Could you tell me which pKd is on file for 108VH10.Mq / 108VL10.Me (antibody, V domains shown, 4D5-framework series; constant regions not restated for this series; also called VH10.Mq VL10.Me) VH: EVQLVESGGGLVQPGGSLRLSCAASGFTFSHHWIHWVRQAPGKGLEWVAMIDASDSETRLSDSVKGRFTISADTSKNTAYLQMNSLRAEDTAVYYCSRLGRYYFDYWGQGTLVTVSS VL: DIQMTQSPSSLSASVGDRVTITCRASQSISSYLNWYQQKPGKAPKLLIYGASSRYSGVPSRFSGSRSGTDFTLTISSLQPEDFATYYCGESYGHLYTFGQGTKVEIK ?
Reply text: 6.92
